- measured-on: RUNX1 (UniProt Q01196)
- Sequence (Q01196 whole entry): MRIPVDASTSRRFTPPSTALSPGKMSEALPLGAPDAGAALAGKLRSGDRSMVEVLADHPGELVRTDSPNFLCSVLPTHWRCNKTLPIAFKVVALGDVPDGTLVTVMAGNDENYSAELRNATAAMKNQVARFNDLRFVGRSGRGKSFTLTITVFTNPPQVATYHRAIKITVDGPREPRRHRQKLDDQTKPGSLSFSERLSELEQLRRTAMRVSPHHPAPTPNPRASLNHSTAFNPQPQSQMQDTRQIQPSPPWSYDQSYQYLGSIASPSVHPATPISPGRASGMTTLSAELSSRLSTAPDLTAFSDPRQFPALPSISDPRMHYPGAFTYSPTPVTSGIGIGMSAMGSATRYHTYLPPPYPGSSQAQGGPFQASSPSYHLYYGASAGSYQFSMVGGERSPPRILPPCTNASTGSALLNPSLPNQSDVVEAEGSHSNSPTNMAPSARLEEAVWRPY
- test-protocol: TF binding intensity (PBM fluorescence), negative control probe (arbitrary fluorescence units); higher = stronger binding
In this section we review reported TF binding intensity values for a set of sequences.
measurement-label: TF binding intensity

chain_sequence="ATTTCTGTGCAGTCACTTCCTCTTCTTAGGTCATAG (protein concentration 2 nM)" measurement_label="TF binding intensity" assay_value=1010
chain_sequence="CTGATTCACTGCCCTCTTCCGCTCTGAGGCGTCGCC (protein concentration 2 nM)" measurement_label="TF binding intensity" assay_value=1030
chain_sequence="GACGAGCCCGGTGGCAGGAAGTGACAGTGAGAAACT (protein concentration 2 nM)" measurement_label="TF binding intensity" assay_value=965
chain_sequence="GCGTACACCTGCCGCCGGAAGAAGAGCGACGGTCGC (protein concentration 2 nM)" measurement_label="TF binding intensity" assay_value=909
chain_sequence="GGTGTCAAAGCCGAGCGGAAGCGGGGCTGGAATTGG (protein concentration 2 nM)" measurement_label="TF binding intensity" assay_value=891

----------
- measured-on: ETS1 (UniProt P14921)
- Sequence: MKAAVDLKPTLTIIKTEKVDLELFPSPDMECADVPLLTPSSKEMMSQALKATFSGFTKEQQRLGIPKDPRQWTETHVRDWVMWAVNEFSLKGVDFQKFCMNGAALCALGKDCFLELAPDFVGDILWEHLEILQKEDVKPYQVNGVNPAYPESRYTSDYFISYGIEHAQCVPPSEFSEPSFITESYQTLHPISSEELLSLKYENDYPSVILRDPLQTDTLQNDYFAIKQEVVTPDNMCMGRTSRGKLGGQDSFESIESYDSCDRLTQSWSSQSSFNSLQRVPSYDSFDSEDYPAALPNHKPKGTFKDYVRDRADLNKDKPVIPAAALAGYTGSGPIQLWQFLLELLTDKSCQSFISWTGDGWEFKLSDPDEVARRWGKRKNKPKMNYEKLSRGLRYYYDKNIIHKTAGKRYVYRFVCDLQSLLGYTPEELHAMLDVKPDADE
- test-protocol: ETS1 binding intensity (PBM fluorescence), ETS1 alone (arbitrary fluorescence units); higher = stronger binding
- test-conditions: ETS1 concentration 1 nM; RUNX1 concentration 0 nM
In this section we review reported ETS1 binding intensity values for a set of sequences.
measurement-label: ETS1 binding intensity

chain_sequence=TCAAGAGGGTGTGGAGGAAGTGGGTTACAAGCACTT assay_value=1450
chain_sequence=AGGCGGCAGGAAATGACCCCATCCCGCAGCCTGGGC assay_value=2480
chain_sequence=GCCGGGCACTTCCTGTGGAGGCCGCAGCGGGTGCGC assay_value=1330
chain_sequence=GGGCGGGTCAGCGGAAGTGAGGGCGGTTGAGGCTGG assay_value=4740
chain_sequence=CTGCTTCGGCCCGGCTTCCGCCCACAGTCAACTGCC assay_value=825
chain_sequence=GACACAAGCCTCACAGGATGTGGTCAAAGAAGGTTG assay_value=3830
chain_sequence=TCCTAGCCATTTCCTATCCACCCTGTGGCTAATTTG assay_value=437
chain_sequence=ATGGAAAGGAAGTCGGTGGGAAACCGCCTCAGCGGT assay_value=797
chain_sequence=GTGGTCGGGAGGGGAAGTGAGGCGGTTACCTCGGCG assay_value=684
chain_sequence=ATTGTAAATTTCCTTTAAACGTCCCCACCGCGCTCC assay_value=463
chain_sequence=GAAAAATGAAGTTTCCGCAGTAACCACAACACAGCC assay_value=556
chain_sequence=AAGCTGAAAAGGGGATGTGGTTGCCTGCCTGTGGGA assay_value=534
chain_sequence=GGAGAGTTGACTTCCGGCGGCTTGTGGGAGTGCTGG assay_value=2740
chain_sequence=TAGGCCGGAAAGCACCACCGTCCTCCCGCAGGCCGC assay_value=455
chain_sequence=CCAGAATGCAGGAAGTGCTGTGGTTTGACTTTGTTT assay_value=3550
chain_sequence=CGGGCTGGGAGGAAGTGATGGCTGACCACAGAGGAG assay_value=1130
chain_sequence=GCTGCTGTAGTCGCTTCCTGCGGCCAGCCCGGGTTC assay_value=526
chain_sequence=GAGAAACAGGAAGAGGGGTGGTGGTTACGGAACACG assay_value=2290
chain_sequence=GTGGTCTCTCCCGGAAAAACCACTTCCACCGAGAAC assay_value=932
chain_sequence=CATAGGAAGTGCTCAGCTCTCCTCCACCGCAAGTTT assay_value=452
chain_sequence=AAAGACAGGATGTGGGGGAGTGAGCCACAAGGGCCC assay_value=1160
chain_sequence=GCAGTCAGAAGGTGCGGATGCGGTAAGGTATGCGCT assay_value=1130

----------
- measured-on: RUNX1 (UniProt Q01196)
- test-protocol: RUNX1 binding intensity (PBM fluorescence), RUNX1 alone (arbitrary fluorescence units); higher = stronger binding
- test-conditions: RUNX1 concentration 2 nM; ETS1 concentration 0 nM
In this section we review reported RUNX1 binding intensity values for a set of sequences.
measurement-label: RUNX1 binding intensity

chain_sequence=ACCGCCGGAAGTTTCTGCCGCGGCTTTGCGGGGACG measurement_label="RUNX1 binding intensity" assay_value=791
chain_sequence=ACCACCCACTTCCCGCGCAGTTCCAAACCGCGACCA measurement_label="RUNX1 binding intensity" assay_value=1590
chain_sequence=GGTTTCGCTTCCGGGTTAGGCGGCCGCAGAAGCGTA measurement_label="RUNX1 binding intensity" assay_value=790
chain_sequence=TTGGTCAGGATGTGGCTGAAGAAGCCACAAGAAAAA measurement_label="RUNX1 binding intensity" assay_value=769
chain_sequence=TGACATTTCCGGCCCCACCTCGGCCCGCAGCGCCGC measurement_label="RUNX1 binding intensity" assay_value=955
chain_sequence=CTCACAGAGCAAGTAGGATGTGGTTTCCAGGGGCTG measurement_label="RUNX1 binding intensity" assay_value=800

----------
- measured-on: ETS1 (UniProt P14921)
- Sequence: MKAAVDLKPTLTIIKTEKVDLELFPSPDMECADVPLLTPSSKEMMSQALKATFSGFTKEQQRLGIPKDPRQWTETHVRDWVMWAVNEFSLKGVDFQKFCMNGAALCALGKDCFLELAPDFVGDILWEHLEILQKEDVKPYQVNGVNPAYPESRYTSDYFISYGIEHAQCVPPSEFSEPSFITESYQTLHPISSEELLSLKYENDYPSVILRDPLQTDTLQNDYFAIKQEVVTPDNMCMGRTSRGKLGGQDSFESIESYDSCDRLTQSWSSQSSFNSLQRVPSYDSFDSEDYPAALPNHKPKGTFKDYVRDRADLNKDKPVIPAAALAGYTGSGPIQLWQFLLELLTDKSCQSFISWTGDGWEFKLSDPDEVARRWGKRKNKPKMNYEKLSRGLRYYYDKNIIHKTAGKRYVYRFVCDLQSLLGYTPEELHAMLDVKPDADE
- test-protocol: ETS1 binding intensity (PBM fluorescence) in presence of RUNX1, normalised to ETS1-only experiment (arbitrary fluorescence units); higher = stronger binding
- test-conditions: ETS1 concentration 1 nM; RUNX1 concentration 25 nM
In this section we review reported ETS1 binding intensity values for a set of sequences.
measurement-label: ETS1 binding intensity

chain_sequence=GAAGGTTGTAGAGGAAGTGGTTTGTTCTTCCTCCTG assay_value=4070
chain_sequence=TCACTCCTCTTCCTTCCTGCCACCCACAGGGTCAGC assay_value=378
chain_sequence=GCAACAGCGATCCCCGGAAACCACAAGGCGAGATGT assay_value=5080
chain_sequence=AAAACAAGGACTTCCGCCTCCCTGCGGTCCCTCCCC assay_value=2730
chain_sequence=TGGTTTCCGGGCTGGGGTTAGAATAGGCCACAAGGT assay_value=536
chain_sequence=TGGCAGGATGCCGTTAAATATGTAACCACATGTCTC assay_value=1250
chain_sequence=GCACCGTACCCGGAACTGCTCCCTCCCGCAGGCGCA assay_value=540
chain_sequence=AGTACAAAGGGGAAATGTCTCTTGGTGGTTGATAAG assay_value=564
chain_sequence=GTGCTGAGCAGCTTCCCGTCTGCGGTGAAGACAGCC assay_value=1040
chain_sequence=TTCTCTGATTTTCCTTCCGCTCCCACAGCCTCTCCC assay_value=612
chain_sequence=TTGGAGACACACAAAGGATGTGGGCTGTGCGTGTGT assay_value=1780
chain_sequence=TGGCTGCCACTGAGAGGATGTGGTGACAGAGGTGGG assay_value=4350
chain_sequence=GCCTCCTCCCATTTCCTCCATGTGGTCAATCCAGTT assay_value=731
chain_sequence=TATTCTTCCTGTACTTAAGCTTGCTGGTGTGGTTTC assay_value=492
chain_sequence=GTTCTTCCACGTCCGCGTTACCCACAACGGCAGTGG assay_value=606
chain_sequence=GGGCTCGGGGAGGAAGCGGTGGTTTCTCTTTGAAGC assay_value=907
chain_sequence=GGTCACATCCTTTCCCTTCTGTGTCTCAGCCGCAGT assay_value=449
chain_sequence=AAGGGAGCCGCCCGGAAACCGCGCGGCAAAGATGCC assay_value=2940
chain_sequence=AGCTTGCTTCCTGTCCCCAAAACCCACAGCACACGG assay_value=1120
chain_sequence=CACCCAGTTTGAACTTCCTGGCGGTTTTGTTTACAC assay_value=853
chain_sequence=TTAGCACATCCTGGGTACACAGACCACAGCCTCCTC assay_value=475
chain_sequence=CTTGCTTGAGTCACAGGAAACCACTCAGAGGCTAAC assay_value=2860
chain_sequence=GTGTGCGTGAGAAGAGGAAGTGGTTAGGAAGACACA assay_value=12200
chain_sequence=AACTAGGCTTTTCTTTCCTGTGGTCCTTAAGGAGGC assay_value=329
chain_sequence=TCCCACATCCTGTGCTCGTGCAGTGGTTAGGCTCAA assay_value=608

Reference source for all entries: the supplement of paper PMC10681739
